system: SF-539 CNS; test: NCI tumour cell line growth inhibition, 48 h
measured_quantity: TGI (µM)
Write the number in µM without appending the unit.

| chemical_structure | TGI [µM] |
| --- | --- |
| CC[C@H](C)C1=C(OC(C)=O)[N@+]2([O-])Oc3ccc(-c4c(OC(C)=O)c(OC(C)=O)c(-c5ccc(OC(C)=O)cc5)c(OC(C)=O)c4OC(C)=O)cc3O[C@]2([C@@H](C)CC)C(=O)N1OC(C)=O | 28.5 |
| COc1ccc2[nH]c(O)c(/C=c3/cc4c(c(-c5ccc(F)cc5)n3)=Nc3ccccc3-4)c2c1 | 20.6 |
| CC1=C(C(=O)Nc2ccccc2)C(c2ccc(C(C)C)cc2)C(C(=O)Nc2ccccc2)=C(C)N1 | 17.6 |
| CN(C)CCNc1nc(-c2cccs2)cc(-c2cccs2)n1 | 28.5 |

Pending molecule:
// TGI lookup, key: "Oc1c(CN2CCOCC2)cc(COCc2ccccc2)c2cccnc12"
11.5
